Test: Rat toxicity test, oral administration for 4 weeks
Type: in vivo, male SD rats
Design: key: +: recognized; −: not observed
Conditions: 24 mg/kg
Experimental: The compounds of the present invention and the reference compound TAC-101 were orally administered to male SD rats (CLEA Japan, Inc.) for 4 weeks. The dosage of each compound was 6 mg/kg or 24 mg/kg per rat. Differences in toxic symptoms were compared and studied.
PROPERTY_LABEL: Endocortical Proliferation

>>> df
                                   compound              property_label  observed_measurement
0  C/C(=C\c1ccc(NC(=O)c2cc([Si](C)(C)C)cc([Si](C)(C)C)c2)cc1F)C(=O)O [Compound 14]  Endocortical Proliferation                     −
1  C[Si](C)(C)c1cc(C(=O)Nc2ccc(C(=O)O)cc2)cc([Si](C)(C)C)c1 [TAC-101, reference compound]  Endocortical Proliferation                     +
2  C[Si](C)(C)c1cc(C(=O)Nc2ccc(/C=C/C(=O)O)c(F)c2)cc([Si](C)(C)C)c1 [Compound 2]  Endocortical Proliferation                     −
3  C[Si](C)(C)c1cc(C(=O)Nc2ccc(/C=C/C(=O)O)cc2)cc([Si](C)(C)C)c1 [Compound 3]  Endocortical Proliferation                     −

---

assay: Rat toxicity test, oral administration for 4 weeks; format: in vivo, male SD rats; design: key: +: recognized; −: not observed; details: 24 mg/kg
PROPERTY_LABEL: Alopecia Symptom

>>> df
                                   molecule    property_label  observed_measurement
0  C[Si](C)(C)c1cc(C(=O)Nc2ccc(C(=O)O)cc2)cc([Si](C)(C)C)c1 [TAC-101, reference compound]  Alopecia Symptom                     +
1  C[Si](C)(C)c1cc(C(=O)Nc2ccc(/C=C/C(=O)O)cc2)cc([Si](C)(C)C)c1  Alopecia Symptom                     −
2  C[Si](C)(C)c1cc(C(=O)Nc2ccc(/C=C/C(=O)O)c(F)c2)cc([Si](C)(C)C)c1  Alopecia Symptom                     −
3  C/C(=C\c1ccc(NC(=O)c2cc([Si](C)(C)C)cc([Si](C)(C)C)c2)cc1F)C(=O)O  Alopecia Symptom                     −
